# Assay Info: Thermal stability, 120° C. for 10 min
# Format: physicochemical
# Condition Summary: before heating
# label = true (1) if CBN content of the sample, initial < 30 µg else false (0)

Q. Field: below-cutoff. Rule: recorded CBN content of the sample, initial strictly less than 30 µg. Subject: CCCCCc1cc(OC(=O)C(N)CC(C)C)c2c(c1)OC(C)(C)C1CCC(C)=CC21 (centres unmarked) [THC-Leucinate (8), Δ^9-THC-leucinate]
A. true (1)

Q. Field: below-cutoff. Rule: recorded CBN content of the sample, initial strictly less than 30 µg. Subject: CCCCCc1cc(OC(=O)C(N)C(C)C)c2c(c1)OC(C)(C)C1CCC(C)=CC21 (centres unmarked) [THC-Valinate (6), Δ^9-THC-valinate]
A. true (1)

Q. Field: below-cutoff. Rule: recorded CBN content of the sample, initial strictly less than 30 µg. Subject: CCCCCc1cc(OC(=O)C(NC(=O)CCC(=O)O)C(C)C)c2c(c1)OC(C)(C)C1CCC(C)=CC21 (centres unmarked) [THC-Valinate-HS (15), THC-valinate-hemisuccinate]
A. true (1)

Q. Field: below-cutoff. Rule: recorded CBN content of the sample, initial strictly less than 30 µg. Subject: CCCCCc1cc(OC(=O)[C@@H](N)Cc2c[nH]c3ccccc23)c2c(c1)OC(C)(C)[C@@H]1CCC(C)=C[C@@H]21 [THC-Tryptophanate (10), Δ^9-THC-tryptophinate]
A. true (1)

Q. Field: below-cutoff. Rule: recorded CBN content of the sample, initial strictly less than 30 µg. Subject: CCCCCc1cc(OC(=O)CNC)c2c(c1)OC(C)(C)[C@@H]1CCC(C)=C[C@@H]21 [THC-Sarcosinate (7), Δ^9-THC-sarcosinate]
A. false (0)

Q. Field: below-cutoff. Rule: recorded CBN content of the sample, initial strictly less than 30 µg. Subject: CCCCCc1cc(O)c2c(c1)OC(C)(C)C1CCC(C)=CC21 (centres unmarked) [THC, Δ^9-Tetrahydrocannabinol, reference compound]
A. false (0)

Q. Field: below-cutoff. Rule: recorded CBN content of the sample, initial strictly less than 30 µg. Subject: CCCCCc1cc(OC(=O)[C@@H](N)Cc2ccc(O)cc2)c2c(c1)OC(C)(C)[C@@H]1CCC(C)=C[C@@H]21 [THC-Tyrosinate (11), Δ^9-THC-tyrosinate]
A. false (0)

Q. Field: below-cutoff. Rule: recorded CBN content of the sample, initial strictly less than 30 µg. Subject: CCCCCc1cc(OC(=O)CCCc2ccc(NC(=O)CCC(=O)O)cc2)c2c(c1)OC(C)(C)[C@@H]1CCC(C)=C[C@@H]21 [THC-APB-HS (14)]
A. false (0)

----------
# Assay Info: Thermal stability, 120° C. for 10 min
# Type: physicochemical
# Condition Summary: before heating
Could you please report measured Initial, μg (drug itself) for the items listed next?
Kindly answer with a numeric value in µg, unit omitted.

Q. Complete the entry with Initial, μg (drug itself) for CCCCCc1cc(O)c2c(c1)OC(C)(C)C1CCC(C)=CC21 (stereo not drawn) [THC, Δ^9-Tetrahydrocannabinol, reference compound]
A. 1280.70

Q. Complete the entry with Initial, μg (drug itself) for CCCCCc1cc(OC(=O)CNC)c2c(c1)OC(C)(C)[C@@H]1CCC(C)=C[C@@H]21 [THC-Sarcosinate (7), Δ^9-THC-sarcosinate]
A. 1197.24

Q. Complete the entry with Initial, μg (drug itself) for CCCCCc1cc(OC(=O)C(N)CC(C)C)c2c(c1)OC(C)(C)C1CCC(C)=CC21 (stereo not drawn) [THC-Leucinate (8), Δ^9-THC-leucinate]
A. 1554.80

Q. Complete the entry with Initial, μg (drug itself) for CCCCCc1cc(OC(=O)CCCc2ccc(NC(=O)CCC(=O)O)cc2)c2c(c1)OC(C)(C)[C@@H]1CCC(C)=C[C@@H]21 [THC-APB-HS (14)]
A. 1449.90

Q. Complete the entry with Initial, μg (drug itself) for CCCCCc1cc(OC(=O)C(NC(=O)CCC(=O)O)C(C)C)c2c(c1)OC(C)(C)C1CCC(C)=CC21 (stereo not drawn) [THC-Valinate-HS (15), THC-valinate-hemisuccinate]
A. 1411.49

Q. Complete the entry with Initial, μg (drug itself) for CCCCCc1cc(OC(=O)[C@@H](N)Cc2ccc(O)cc2)c2c(c1)OC(C)(C)[C@@H]1CCC(C)=C[C@@H]21 [THC-Tyrosinate (11), Δ^9-THC-tyrosinate]
A. 1222.61

Q. Complete the entry with Initial, μg (drug itself) for CCCCCc1cc(OC(=O)[C@@H](N)Cc2c[nH]c3ccccc23)c2c(c1)OC(C)(C)[C@@H]1CCC(C)=C[C@@H]21 [THC-Tryptophanate (10), Δ^9-THC-tryptophinate]
A. 1347.57

Q. Complete the entry with Initial, μg (drug itself) for CCCCCc1cc(OC(=O)C(N)C(C)C)c2c(c1)OC(C)(C)C1CCC(C)=CC21 (stereo not drawn) [THC-Valinate (6), Δ^9-THC-valinate]
A. 1570.09

Q. Complete the entry with Initial, μg (drug itself) for CCCCCc1cc(OC(=O)[C@@H](N)CCC(N)=O)c2c(c1)OC(C)(C)[C@@H]1CCC(C)=C[C@@H]21 [THC-Glutaminate (9), Δ^9-THC-glutaminate]
A. 951.08
